# Target: Trypsin (Homo sapiens, UniProt P07477+P07478+P35030)
# Assay method text: The inhibition constant against human trypsin
# Assay type: protein assay
Measured metric: Ki (µM)

CCOC(=O)C(Oc1ccc2c(c1)CN(C(=N)N)CC2)c1ccc(O[C@H]2CCN(C3=CC(=O)CC(C)(C)C3)C2)cc1 (some centres undefined) :: 10

(1) CCOC(=O)C(Oc1ccc2c(c1)CN(C(=N)N)CC2)c1ccc(OC2CCN(C(=N)c3ccc(OC)cc3)CC2)cc1 (centres undefined)
(2) CCOC(=O)C(Oc1ccc2c(c1)CN(C(=N)N)CC2)c1ccc(OC2CCN(C(C)=O)CC2)cc1 (centres undefined)
(3) CCOC(=O)C(Oc1ccc2c(c1)CN(C(=N)N)CC2)c1ccc(O[C@H]2CCN(C(C)=N)C2)cc1 (some centres undefined)
Data request: With regard to Ki, arrange the entries in ascending order, please. # list labels per requested ordering
Data returned: 1, 3, 2

###

# Target: Coagulation factor X (Homo sapiens, UniProt P00742)
# Sequence (P00742 41-179 limits assumed): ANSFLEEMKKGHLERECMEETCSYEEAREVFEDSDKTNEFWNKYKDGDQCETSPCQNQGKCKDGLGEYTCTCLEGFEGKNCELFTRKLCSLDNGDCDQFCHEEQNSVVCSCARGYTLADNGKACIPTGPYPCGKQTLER
# Sequence (P00742 235-488 limits assumed): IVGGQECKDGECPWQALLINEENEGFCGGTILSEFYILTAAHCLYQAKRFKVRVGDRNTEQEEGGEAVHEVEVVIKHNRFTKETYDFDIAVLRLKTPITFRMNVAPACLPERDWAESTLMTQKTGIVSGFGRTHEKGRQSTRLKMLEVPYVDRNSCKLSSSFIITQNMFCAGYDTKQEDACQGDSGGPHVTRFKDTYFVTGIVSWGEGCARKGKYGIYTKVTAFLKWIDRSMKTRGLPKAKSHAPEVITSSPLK
# Assay method text: The inhibition constant against human Coagulation factor X
pKi: −log10 of the molar value.
Measured metric: pKi

Answered examples (2):
CC(=N)N1CC[C@H](Oc2ccc(C(Oc3ccc4c(c3)CN(C(=N)N)CC4)C(=O)O)cc2)C1 (stereo partly drawn) :: 7.10
C=CCOC(=O)N1CC[C@H](Oc2ccc(C(Oc3ccc4c(c3)CN(C(=N)N)CC4)C(=O)OCC)cc2)C1 (stereo partly drawn) :: 6.70

(P) N=C(N)N1CCc2ccc(OC(C(=O)O)c3ccc(O[C@H]4CCN(C(=N)N)C4)cc3)cc2C1 (stereo partly drawn)
(Q) N=C(N)N1CCc2ccc(OC(C(=O)O)c3ccc(OC4CCNCC4)cc3)cc2C1 (stereo not drawn)
(R) CC(=N)N1CCC(Oc2ccc(C(Oc3ccc4c(c3)CN(C(=N)N)CC4)C(=O)O)cc2)CC1 (stereo not drawn)
(S) CCOC(=O)C(Oc1ccc2c(c1)CN(C(=N)N)CC2)c1ccc(OC2CCN(C(=N)CC)CC2)cc1 (stereo not drawn)
(T) CCOC(=O)C(Oc1ccc2c(c1)CN(C(=N)N)CC2)c1ccc(O[C@H]2CCN(C(C)=N)C2)cc1 (stereo partly drawn)
Data request: List from greatest to least pKi. # list labels per requested ordering
Data returned: S, R, T, P, Q

###

# Target: UniProtKB P00742
pKi: −log10 of the molar value.
Measured metric: pKi

Answered examples (2):
CCOC(=O)C(Oc1ccc2c(c1)CN(C(=N)N)CC2)c1ccc(OC2CCN(C(C)=N)CC2)cc1 (configuration not stated) :: 7.52
CC1(C)CC(=O)C=C(N2CC[C@H](Oc3ccc(C(Oc4ccc5c(c4)CN(C(=N)N)CC5)C(=O)O)cc3)C2)C1 (some centres not stated) :: 6.70

(a) CCOC(=O)C(Oc1ccc2c(c1)CN(C(=N)N)CC2)c1ccc(OC2CCN(C(=N)N)CC2)cc1 (configuration not stated)
(b) CCOC(=O)C(Oc1ccc2c(c1)CN(C(=N)N)CC2)c1ccc(OC2CCOCC2)cc1 (configuration not stated)
Data request: Smaller pKi value? Options are a and b Output the label that corresponds to your choice.
Data returned: b
(b: 5.70, a: 7.55)

(A) CCOC(=O)C(Oc1ccc2c(c1)CN(C(=N)N)CC2)c1ccc(OC2CCN(C(C)=O)CC2)cc1 (configuration not stated)
(B) CCOC(=O)C(Oc1ccc2c(c1)CN(C(=N)N)CC2)c1ccc(O[C@H]2CCN(C3=CC(=O)CC(C)(C)C3)C2)cc1 (some centres not stated)
Data request: Smaller pKi value? Options are A and B Output the label that corresponds to your choice.
Data returned: A
(A: 5.52, B: 6.70)
